Let's look at some binders and their measured 90% monkey serum IC50 (µg/mL), inhibition of the lectin pathway (C4c deposition on mannan).
# ASSAYED TARGET: MASP2 in monkey serum (monkey)
# TEST PROTOCOL: cell-based or functional assay
OUTCOME MEASURE: 90% monkey serum IC50 (µg/mL), inhibition of the lectin pathway (C4c deposition on mannan)

{"columns": ["BINDER", "OBS VALUE"],
 "data": [
  ["77H11 (H3L1) (antibody, human IgG4 S228P, kappa, V domains shown, Humanized 77H11, full-length human IgG4 (S228P); also called 77H1(H3L1); 77H1 (H3L1)) VH: EVQLQESGPGLVKPSQTLSLTCTVSGYSITSDYAWNWIRQPPGKGLEWIGYISYSGRTSYNPSLKSRVTISRDTSKNQFSLKLSSVTAADTAVYYCAVLYALDYWGQGTTVTVSS VL: DIQMTQSPSSLSASVGDRVTITCKASQNVDTNVAWYQQKPGKVPKALIYSASYRYSGVPSRFSGSGSGTDFTLTISSLQPEDVATYYCQQYNSNPLTFGQGTKLEIKR", "21.6 µg/mL"],
  ["29C1 (H1L1) (antibody, human IgG4 S228P, kappa, V domains shown, Humanized 29C1, full-length human IgG4 (S228P); also called 29C1 (HIL1)) VH: EVQLVESGGGLVKPGGSLRLSCAASGFTFSRFALSWVRQAPGKGLEWVSAVSRGGDYTYYPDSMKGRFTISRDNAKNSLYLQMNSLRAEDTAVYYCARHLYGYGHYYAMDYWGQGTTVTVSS VL: DIQMTQSPSSLSASVGDRVTITCKASQDVNTAVAWYQQKPGKAPKLLIYSASYRYTGVPSRFSGSGSGTDFTFTISSLQPEDIATYYCQQHYSTPYTFGGGTKVEIKR", "15.3 µg/mL"],
  ["OMS721 (antibody, human IgG4 S228P, lambda, V domains shown, Positive control, synthesized according to WO2012151481A; also called narsoplimab; positive control antibody) VH: QVTLKESGPVLVKPTETLTLTCTVSGFSLSRGKMGVSWIRQPPGKALEWLAHIFSSDEKSYRTSLKSRLTISKDTSKNQVVLTMTNMDPVDTATYYCARIRRGGIDYWGQGTLVTVSS VL: QPVLTQPPSLSVSPGQTASITCSGEKLGDKYAYWYQQKPGQSPVLVMYQDKQRPSGIPERFSGSNSGNTATLTISGTQAMDEADYYCQAWDSSTAVFGGGTKLTVLG", "26.6 µg/mL"],
  ["11165 (antibody, human IgG4 S228P, lambda, V domains shown, Fully human antibody from phage display; Full-length human IgG4 (S228P), lambda light chain) VH: QVQLQESGPGLVKPSETLSLTCTVSGGSISSGEYFWGWIRQPPGKGLEWIGSIYYSGSTYYNPSLKSRVTISVDTSKNQFSLKLSSVTAADTAVYYCARSLKAARRDAFDIWGQGTTVTVSS VL: QSVLTQPPSVSVSPGQTASITCSGHKLGDKYAYWYQQKPGQSPVLVIYQDTKRPSGIPERFSGFNSGNTATLTISGTQATDEADYYCQTWDSSTGVFGAGTKVTVLG", "21.1 µg/mL"]
]}

All figures here come from patent US20240209114A1.
